Target: biotinylated CD59 (Homo sapiens, UniProt P13987)
Construct: Recombinant soluble human CD59 with an additional C-terminal cysteine residue
Sequence (P13987 26-102 limits assumed): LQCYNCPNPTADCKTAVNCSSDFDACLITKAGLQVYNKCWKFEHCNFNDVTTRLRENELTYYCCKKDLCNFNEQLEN
Experiment: mRNA-display cyclic peptide screen against CD59-biotin, NGS abundance after 6th selection round
Settings: counts normalised by total counts of sample Seq I; percentage of the pool, sheet R6
assay readout: Percentage Seq I

> print(dat)
           seq     assay.readout  value.reported
1   ASWLTAPCYV  Percentage Seq I          0.032%
2  WIRGSRFYRVI  Percentage Seq I          0.387%
3  WVYGSSTFRYQ  Percentage Seq I          0.030%

Short answer for CFLYRNNPDSV : Percentage Seq I was 0.069%

Short answer for GRLNECHAIWP : Percentage Seq I was 0.112%

Short answer for ISYGDRSYTYY : Percentage Seq I was 0.106%

Short answer for SFAKRVAAQGGC : Percentage Seq I was 0.030%

Short answer for ISRGDARYTWG : Percentage Seq I was 0.019%

Short answer for GYLNECHTLYTL : Percentage Seq I was 0.024%

Short answer for LLGTRDYVRLWH : Percentage Seq I was 0.144%

Short answer for CFANRLYGSDSH : Percentage Seq I was 0.031%
